These entries and their values trace back to ChEMBL document CHEMBL3244155.

What Activity was measured for each of the following?
Target: Gonadotropin-releasing hormone receptor (Rattus norvegicus)
Sequence (whole entry): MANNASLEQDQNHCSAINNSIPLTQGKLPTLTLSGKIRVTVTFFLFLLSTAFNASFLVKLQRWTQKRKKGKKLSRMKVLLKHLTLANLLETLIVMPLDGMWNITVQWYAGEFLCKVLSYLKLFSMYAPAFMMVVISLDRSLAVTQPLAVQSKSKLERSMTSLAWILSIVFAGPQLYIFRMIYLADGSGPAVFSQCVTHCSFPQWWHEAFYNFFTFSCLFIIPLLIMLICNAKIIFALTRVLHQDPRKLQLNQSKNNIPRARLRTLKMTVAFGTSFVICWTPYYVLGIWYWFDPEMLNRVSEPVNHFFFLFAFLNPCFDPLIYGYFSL
Test: Antagonist activity at LH-RH receptor in Sprague-Dawley rat pituitary gland assessed as change in LHRH-stimulated LH release at 1 ug/ml preincubated for 4 hrs followed by LH-RH addition at 5th and 6th hr 5 mins post compound addition and measured for 6 hrs by RIA
Give bare numbers, in ng/mL.

Consider the reported Activity for these compounds:
CC(C)C[C@H](NC(=O)[C@@H](Cc1ccccc1)NC(=O)[C@H](Cc1ccc(O)cc1)NC(=O)[C@H](CO)NC(=O)[C@H](CCCNC(=N)N)NC(=O)[C@@H](Cc1ccccc1)NC(=O)[C@@H]1CCC(=O)N1)C(=O)N[C@@H](CCCNC(=N)N)C(=O)N1CCC[C@H]1C(=O)NCC(N)=O : 51
CC[C@H](C)[C@H](NC(=O)[C@@H](Cc1ccccc1)NC(=O)[C@@H]1CCC(=O)N1)C(=O)N[C@@H](CO)C(=O)N[C@@H](Cc1ccc(O)cc1)C(=O)N[C@H](Cc1c[nH]c2ccccc12)C(=O)N[C@@H](CC(C)C)C(=O)N[C@@H](CCCNC(=N)N)C(=O)N1CCC[C@H]1C(=O)NCC(N)=O : 21
CSCC[C@H](NC(=O)[C@@H](Cc1ccccc1)NC(=O)[C@@H]1CCC(=O)N1)C(=O)N[C@@H](CO)C(=O)N[C@@H](Cc1ccc(O)cc1)C(=O)N[C@H](Cc1c[nH]c2ccccc12)C(=O)N[C@@H](CC(C)C)C(=O)N[C@@H](CCCNC(=N)N)C(=O)N1CCC[C@H]1C(=O)NCC(N)=O : 52

Next:
Consider the compound shown here: CC(C)C[C@H](NC(=O)[C@@H](Cc1ccccc1)NC(=O)[C@H](Cc1ccc(O)cc1)NC(=O)[C@H](CO)NC(=O)CN(C)C(=O)[C@@H](Cc1ccccc1)NC(=O)[C@@H]1CCC(=O)N1)C(=O)N[C@@H](CCCNC(=N)N)C(=O)N1CCC[C@H]1C(=O)NCC(N)=O What is its recorded Activity?
127

====

Biological target: Gonadotropin-releasing hormone receptor (Rattus norvegicus)
Sequence (whole entry): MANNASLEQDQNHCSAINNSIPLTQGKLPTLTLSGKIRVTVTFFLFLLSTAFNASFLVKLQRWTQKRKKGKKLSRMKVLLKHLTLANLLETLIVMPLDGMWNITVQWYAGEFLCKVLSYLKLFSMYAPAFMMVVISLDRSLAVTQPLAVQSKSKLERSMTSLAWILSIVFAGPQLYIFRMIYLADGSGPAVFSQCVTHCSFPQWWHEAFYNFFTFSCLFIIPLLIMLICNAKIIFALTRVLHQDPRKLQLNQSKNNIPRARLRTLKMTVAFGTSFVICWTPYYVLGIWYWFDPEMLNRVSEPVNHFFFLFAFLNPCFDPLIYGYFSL
Test: Antagonist activity at LH-RH receptor in Sprague-Dawley rat pituitary gland assessed as change in LHRH-stimulated LH release at 1 ug/ml preincubated for 4 hrs followed by LH-RH addition at 5th and 6th hr 5 mins post compound addition and measured for 6 hrs by RIA
Non-standard residues stand in square brackets, D forms with d. Residues, ends and D or L forms follow the SMILES beside them. pGlu = O=C1CC[C@@H](C(=O)O)N1
Property: Activity (ng/mL)
Answers are plain numbers, in ng/mL.

CC(C)C[C@H](NC(=O)[C@@H](Cc1ccccc1)NC(=O)[C@H](Cc1ccc(O)cc1)NC(=O)[C@H](CO)NC(=O)[C@@H]1CCCN1C(=O)[C@@H](Cc1ccccc1)NC(=O)[C@@H]1CCC(=O)N1)C(=O)N[C@@H](CCCNC(=N)N)C(=O)N1CCC[C@H]1C(=O)NCC(N)=O ([pGlu][dF]PSY[dF]LRPG-NH2) : 17
CC(C)C[C@H](NC(=O)[C@@H](Cc1ccccc1)NC(=O)[C@H](Cc1ccc(O)cc1)NC(=O)[C@H](CO)NC(=O)[C@@H](NC(=O)[C@@H](Cc1ccccc1)NC(=O)[C@@H]1CCC(=O)N1)[C@@H](C)O)C(=O)N[C@@H](CCCNC(=N)N)C(=O)N1CCC[C@H]1C(=O)NCC(N)=O : 97
CC(C)C[C@H](NC(=O)[C@@H](Cc1c[nH]c2ccccc12)NC(=O)[C@H](Cc1ccc(O)cc1)NC(=O)[C@H](CO)NC(=O)[C@@H](NC(=O)[C@@H](Cc1ccccc1)NC(=O)[C@@H]1CCC(=O)N1)C(C)C)C(=O)N[C@@H](CCCNC(=N)N)C(=O)N1CCC[C@H]1C(=O)NCC(N)=O : -32

Next:
Consider the compound shown here: CC(C)C[C@H](NC(=O)[C@@H](Cc1c[nH]c2ccccc12)NC(=O)[C@H](Cc1ccc(O)cc1)NC(=O)[C@H](CO)NC(=O)[C@@H](Cc1ccccc1)NC(=O)[C@@H](Cc1ccccc1)NC(=O)[C@@H]1CCC(=O)N1)C(=O)N[C@@H](CCCNC(=N)N)C(=O)N1CCC[C@H]1C(=O)NCC(N)=O What is its recorded Activity?
39

====

target: UniProtKB P30969; assay: Antagonist activity at LH-RH receptor in Sprague-Dawley rat pituitary gland assessed as change in LHRH-stimulated FSH release at 100 ug/ml preincubated for 4 hrs followed by LH-RH addition at 5th and 6th hr 5 mins post compound addition and measured for 6 hrs by RIA
Non-standard residues stand in square brackets, D forms with d. Residues, ends and D or L forms follow the SMILES beside them. pGlu = O=C1CC[C@@H](C(=O)O)N1
Property: Activity
The reply should read as a number followed by its unit.

Consider the reported Activity for these compounds:
CC(C)C[C@H](NC(=O)[C@@H](Cc1ccccc1)NC(=O)[C@H](Cc1ccc(O)cc1)NC(=O)[C@H](CO)NC(=O)CN(C)C(=O)[C@@H](Cc1ccccc1)NC(=O)[C@@H]1CCC(=O)N1)C(=O)N[C@@H](CCCNC(=N)N)C(=O)N1CCC[C@H]1C(=O)NCC(N)=O : 321 ng/mL
CC(C)C[C@H](NC(=O)[C@@H](Cc1ccccc1)NC(=O)[C@H](Cc1ccc(O)cc1)NC(=O)[C@H](CO)NC(=O)[C@@H]1CCCN1C(=O)[C@@H](Cc1ccccc1)NC(=O)[C@@H]1CCC(=O)N1)C(=O)N[C@@H](CCCNC(=N)N)C(=O)N1CCC[C@H]1C(=O)NCC(N)=O ([pGlu][dF]PSY[dF]LRPG-NH2) : 179 ng/mL
CC(C)C[C@H](NC(=O)[C@@H](Cc1ccccc1)NC(=O)[C@H](Cc1ccc(O)cc1)NC(=O)[C@H](CO)NC(=O)[C@H](CCCNC(=N)N)NC(=O)[C@@H](Cc1ccccc1)NC(=O)[C@@H]1CCC(=O)N1)C(=O)N[C@@H](CCCNC(=N)N)C(=O)N1CCC[C@H]1C(=O)NCC(N)=O : -133 ng/mL

Consider the compound shown here: CC(C)C[C@H](NC(=O)[C@@H](Cc1c[nH]c2ccccc12)NC(=O)[C@H](Cc1ccc(O)cc1)NC(=O)[C@H](CO)NC(=O)[C@@H](NC(=O)[C@@H](Cc1ccccc1)NC(=O)[C@@H]1CCC(=O)N1)C(C)C)C(=O)N[C@@H](CCCNC(=N)N)C(=O)N1CCC[C@H]1C(=O)NCC(N)=O What is its recorded Activity?
110 ng/mL

====

What Activity was measured for each of the following?
Target: Gonadotropin-releasing hormone receptor (Rattus norvegicus)
Sequence (whole entry): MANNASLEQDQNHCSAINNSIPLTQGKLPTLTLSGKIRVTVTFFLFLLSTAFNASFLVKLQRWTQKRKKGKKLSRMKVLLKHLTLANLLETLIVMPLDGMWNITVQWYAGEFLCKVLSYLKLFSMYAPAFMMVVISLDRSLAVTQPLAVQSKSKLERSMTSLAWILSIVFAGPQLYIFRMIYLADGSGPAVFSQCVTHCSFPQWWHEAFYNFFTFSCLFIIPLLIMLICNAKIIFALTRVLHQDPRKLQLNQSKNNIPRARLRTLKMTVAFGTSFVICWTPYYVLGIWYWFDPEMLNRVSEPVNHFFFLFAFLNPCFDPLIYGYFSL
Assay: Antagonist activity at LH-RH receptor in Sprague-Dawley rat pituitary gland assessed as change in LHRH-stimulated FSH release at 0.1 ug/ml preincubated for 4 hrs followed by LH-RH addition at 5th and 6th hr 5 mins post compound addition and measured for 6 hrs by RIA
Non-standard residues stand in square brackets, D forms with d. Residues, ends and D or L forms follow the SMILES beside them. pGlu = O=C1CC[C@@H](C(=O)O)N1

Please supply Activity for each of the following items, keeping them in order.
1. CC(C)C[C@H](NC(=O)[C@@H](Cc1ccccc1)NC(=O)[C@H](Cc1ccc(O)cc1)NC(=O)[C@H](CO)NC(=O)CN(C)C(=O)[C@@H](Cc1ccccc1)NC(=O)[C@@H]1CCC(=O)N1)C(=O)N[C@@H](CCCNC(=N)N)C(=O)N1CCC[C@H]1C(=O)NCC(N)=O
2. CC(C)C[C@H](NC(=O)[C@@H](Cc1ccccc1)NC(=O)[C@H](Cc1ccc(O)cc1)NC(=O)[C@H](CO)NC(=O)[C@@H]1CCCN1C(=O)[C@@H](Cc1ccccc1)NC(=O)[C@@H]1CCC(=O)N1)C(=O)N[C@@H](CCCNC(=N)N)C(=O)N1CCC[C@H]1C(=O)NCC(N)=O ([pGlu][dF]PSY[dF]LRPG-NH2)
3. CC(C)C[C@H](NC(=O)[C@@H](Cc1ccccc1)NC(=O)[C@H](Cc1ccc(O)cc1)NC(=O)[C@H](CO)NC(=O)[C@@H](NC(=O)[C@@H](Cc1ccccc1)NC(=O)[C@@H]1CCC(=O)N1)[C@@H](C)O)C(=O)N[C@@H](CCCNC(=N)N)C(=O)N1CCC[C@H]1C(=O)NCC(N)=O
4. CC(C)C[C@H](NC(=O)[C@@H](Cc1c[nH]c2ccccc12)NC(=O)[C@H](Cc1ccc(O)cc1)NC(=O)[C@H](CO)NC(=O)[C@@H](NC(=O)[C@@H](Cc1ccccc1)NC(=O)[C@@H]1CCC(=O)N1)C(C)C)C(=O)N[C@@H](CCCNC(=N)N)C(=O)N1CCC[C@H]1C(=O)NCC(N)=O
5. CSCC[C@H](NC(=O)[C@@H](Cc1ccccc1)NC(=O)[C@@H]1CCC(=O)N1)C(=O)N[C@@H](CO)C(=O)N[C@@H](Cc1ccc(O)cc1)C(=O)N[C@H](Cc1c[nH]c2ccccc12)C(=O)N[C@@H](CC(C)C)C(=O)N[C@@H](CCCNC(=N)N)C(=O)N1CCC[C@H]1C(=O)NCC(N)=O

1: 4590 ng/mL; 2: 1380 ng/mL; 3: 5470 ng/mL; 4: 3010 ng/mL; 5: 3270 ng/mL
